The values you see were collected from ChEMBL document CHEMBL4689842.

System: Fibroblast
assay.name: Multiplex assay against human fibroblast
Type: toxicity, cell-based
reported.conditions: 24 h, 10 µM, compound concentration 10 uM, replicate 2
Binning scheme for Population Normal (%): low = under 70%, medium = from 70% up to 90%, high = 90% and over

[[record]]
compound = "CNC(=O)c1ccc(Nc2nc(OC3CCCC3)c3c(-c4ccc5nc(C)oc5c4)c[nH]c3n2)c(OC)c1"
cat = "low"

[[record]]
compound = "Cl.Oc1ccc2c3c1O[C@H]1c4[nH]c5c(c4C[C@@]4(O)[C@@H](C2)N(CC2CC2)CC[C@]314)C[C@@]1(O)[C@H]2Cc3ccc(O)c4c3[C@@]1(CCN2CC1CC1)[C@H]5O4"
cat = "medium"

[[record]]
compound = "CCn1c(=O)c(-c2ccc(-c3cncs3)cc2Cl)cc2cnc(Nc3ccc(N4CCN(C)CC4)cc3)nc21"
cat = "high"

[[record]]
compound = "CNc1cc(Oc2cc(C(=O)Nc3cc(N4CCN(C)CC4)cc(C(F)(F)F)c3)ccc2C)ncn1"
cat = "low"

[[record]]
compound = "COc1cccc2cc(-c3nc([C@H]4CC[C@H](C(=O)O)CC4)n4ncnc(N)c34)[nH]c12"
cat = "low"

[[record]]
compound = "Cc1cn(-c2cc(NC(=O)c3ccc(C)c(Nc4nccc(-c5cccnc5)n4)c3)cc(C(F)(F)F)c2)cn1"
cat = "high"

[[record]]
compound = "O=C1NC(=O)C(c2cnc3ccccn23)=C1c1cn2c3c(cc(F)cc13)CN(C(=O)N1CCCCC1)CC2"
cat = "high"

[[record]]
compound = "CN1CCN(C(=O)C(C)(C)c2ccc(C(=O)Nc3cn4cc(-c5cc(C(C)(C)C)cc(C(C)(C)C)c5)ccc4n3)cc2)CC1"
cat = "low"

[[record]]
compound = "CN1CCC(=C2c3ccccc3CC(=O)c3sccc32)CC1.O=C(O)/C=C/C(=O)O [KETOTIFEN FUMARATE]"
cat = "high"

[[record]]
compound = "O=C1N/C(=N/c2ccccc2F)S/C1=C\\c1ccc(C(=O)O)cc1"
cat = "high"

[[record]]
compound = "CCc1cccc(CC)c1NC(=O)c1nn(C)c2c1CCc1cnc(Nc3ccc(N4CCN(C)CC4)cc3OC)nc1-2"
cat = "medium"

[[record]]
compound = "CCCn1c(=O)c2[nH]c(-c3cnn(Cc4cccc(C(F)(F)F)c4)c3)nc2n(CC)c1=O"
cat = "high"

[[record]]
compound = "Cc1ccc2nc(NCCN)c3ncc(C)n3c2c1.O=C(O)C(F)(F)F.O=C(O)C(F)(F)F"
cat = "low"

